- protocol_summary: protease stability score; higher = more stable; yeast display proteolysis, trypsin and chymotrypsin;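 note: relative to predicted unfolded state with 0 unfolded-like and 1 meaning tenfold more protease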
endpoint_label: protease stability score
API doc: respond with a numeric literal and nothing else, no unit.

>  <macromolecule_sequence>
SKEETWVKEAYELMTRTIRTGDERLMHELLDPHVRTVINGQESHGREVVLRFLEHIRYEEVTPTHIRIIGDWIDVDIRIHGHFDGRRYELRSTLFMRKVDGKWDLTEIRII

>  <protease stability score>
0.709

$$$$
>  <macromolecule_sequence>
DDESEKAEHIYELLTRLMLTGDEQIIHKLMDPNVRLDVDGQEYHGREEVVSAWRRWLKEMGVDHLELKSVRLIFFNGQLHIHINGEVRFNGRKHRVHIRLVLRKIDGVWHLEELEVEYK

>  <protease stability score>
1.92

$$$$

Query: // returns reported protease stability score for input "DEDRKNEEIAEKIQLRVLKTGDEDELHHLVDPNVKLHIDGREFHGMELSTHLLSRWHEKYKGLKWRLRDSQSQGDFVIIHFHVHVNGKRLRFVVIARKVDGRWVVEEIELE"
Response: 1.4

Query: Now this one: "HEIEEIARHINNIWEERSRTGDFRHFTTLLDPHARIDINGVELHGRELWMSRVYHHFQSHGIEYSVHTKHIEVFDGRVHLHGELFFHFNGVDITIRTHHTMRKVDGRWFVEQIIVH"
Response: 0.468

Query: Now this one: "DREEEEVRRARKLWVDWAETGDEESIFKNADPRTRVDINGKILHGMEIYKKESEKLGIDNIEFRVDDVRVFDGRLEMDGELIVNGRSIRVHIYSRKIDGRWVLTSINFI"
Response: 0.872

Query: Now this one: "HEESEDATRFLHQVIHALYTGDEKRFDELLDPRMRLHIGDKQHVGRENVSEFLLHLRIRHVHVHDFRVFDGRLHVDQTLDGEYDGRRREIHFELQITKINGRWFLNHFWIR"
Response: 1.35

---

- protocol_summary: protease stability score; higher = more stable; yeast display proteolysis, trypsin and chymotrypsin;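 note: relative to predicted unfolded state with 0 unfolded-like and 1 meaning tenfold more protease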
endpoint_label: protease stability score

>  <macromolecule_sequence>
DELTDSREHALNLYIHKLETGDWNLHERFLDPNVRVDYDGVDLHGREIYRQWETERLEIAGIKHLELKRKSVQGEKIRIDGIEKFDGKEVKTHVIILKVNGKWILETVIFK

>  <protease stability score>
0.171

$$$$
>  <macromolecule_sequence>
SEDEEEHKEMLRILIHDNRTGDEDSFRDMFDPNVRFEQGEWSAHGRDWAEHVMRRADHVKLDLQTMDTQGDKVILHGRLILLQGEKRIDEKVIFIIRKIDGKWILESVHFH

>  <protease stability score>
1.21

$$$$
>  <macromolecule_sequence>
DELDEELHKLFEKYLRSHLTGDFHSLERLLDPNARLIWIVDGKMINIHGREDISRFLREWEEEARHHHHELKEVDTQGNYFHSRMHEDGHINGVRRKIHVTHNIVMIDGKLESITHIII

>  <protease stability score>
1.08

$$$$

Query: // returns reported protease stability score for input "DEQEKELEEFLKLLLYAIWTGDEDTITELADPNVRMHIGDKLNHGWEILSDRLTEIRSDIHDFKLRHIETIGNKMTLFGDLNGQINVGDKEKRTIIHMILHVHKIDGRWLLTHIHFD"
Response: 0.265

Query: Now this one: "TEEDRLVDKITKELLTALTTGDEEIFLELLDPNARVEYNGKEMHGREFYRKIFEEEEKKIKNLRVEIHDYDAQGDKIHVDQRRHFNGRTYDYRLHYLVVNGKVKSVFVRIL"
Response: 0.831

Query: Now this one: "DKREHDMERWFKLWWHTLMTGDEDLYHELLDPNARIVQGEKHHHGRENLVEYFTHLVEEMRIRHFHLHDMRFQGEKNDIDGHIDITINGQRHDTRFTIHLLIVNGKLRHVELRIL"
Response: 0.506
